- tgt: recombinant human secreted phospholipase A2 (Homo sapiens, UniProt P14555)
- Sequence (P14555 21-144): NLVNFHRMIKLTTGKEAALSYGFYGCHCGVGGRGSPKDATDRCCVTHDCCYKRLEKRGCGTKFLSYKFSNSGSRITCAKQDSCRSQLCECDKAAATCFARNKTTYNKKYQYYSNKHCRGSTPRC
- assayNotes: Chromogenic assay for inhibitors of recombinant human secreted phospholipase A2 (Assay Example 1)
- Assay type: biochemical
- conditionSummary: compounds of formula 2; diheptanoyl thio-PC substrate, pH 7.5, absorbance at 405 nm
Let's look at some compounds and their measured pIC50.
Hey, just a heads up that pIC50 is the negative log base 10 of the concentration in molar.

| entrySmiles | numericResult |
| --- | --- |
| CCNC(=O)COc1cccc2c1c1c(C(N)=O)cccc1n2Cc1ccccc1 | 6.56 |

Okay, next one:
Any idea what pIC50 came out for NC(=O)COc1cccc2c1c1c(C(N)=O)cccc1n2Cc1ccccc1 on recombinant human secreted phospholipase A2 (Homo sapiens, UniProt P14555)?
6.82
